Target: 5-hydroxytryptamine receptor 1A (Homo sapiens) (UniProt P08908)
Sequence (P08908 whole entry): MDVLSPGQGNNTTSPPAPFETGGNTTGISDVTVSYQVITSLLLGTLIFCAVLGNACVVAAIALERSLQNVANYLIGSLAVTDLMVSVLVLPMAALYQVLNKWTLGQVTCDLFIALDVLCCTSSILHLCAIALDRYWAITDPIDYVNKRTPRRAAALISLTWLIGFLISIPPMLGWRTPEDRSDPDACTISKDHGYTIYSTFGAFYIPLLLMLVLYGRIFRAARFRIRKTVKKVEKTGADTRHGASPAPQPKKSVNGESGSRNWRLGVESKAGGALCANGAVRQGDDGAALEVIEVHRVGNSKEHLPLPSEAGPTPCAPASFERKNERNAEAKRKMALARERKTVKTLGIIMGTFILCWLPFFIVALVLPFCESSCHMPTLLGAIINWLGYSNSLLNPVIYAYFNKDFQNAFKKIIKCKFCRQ
Conditions: HeLa
Description: Agonist activity at human recombinant 5HT1A receptor expressed in HeLa cells preincubated for 20 mins by [35S]GTPgammaS binding assay
ENDPOINT_NAME: pD2

COMPOUND	ENDPOINT_NAME	VALUE_REPORTED
COc1ccccc1OCCNC[C@H]1CCC(c2ccccc2)(c2ccccc2)[C@@H]1O (relative stereo)	pD2	8.96
COc1ccccc1OCCNCC1CCC(c2ccccc2)(c2ccccc2)O1 (stereo unspecified)	pD2	9.04
COc1ccccc1OCCNCC1COC(c2ccccc2)(c2ccccc2)O1 (stereo unspecified)	pD2	7.36
O=C1C(CNCCOc2ccccc2)CCC1(c1ccccc1)c1ccccc1 (stereo unspecified)	pD2	7.44
COc1ccccc1N1CCN(CC2COC(c3ccccc3)(c3ccccc3)O2)CC1 (stereo unspecified)	pD2	8.3
COc1ccccc1N1CCN(C[C@H]2CCC(c3ccccc3)(c3ccccc3)[C@@H]2O)CC1	pD2	8.74

----------
Target: Alpha-1B adrenergic receptor (Rattus norvegicus)
Sequence (whole entry): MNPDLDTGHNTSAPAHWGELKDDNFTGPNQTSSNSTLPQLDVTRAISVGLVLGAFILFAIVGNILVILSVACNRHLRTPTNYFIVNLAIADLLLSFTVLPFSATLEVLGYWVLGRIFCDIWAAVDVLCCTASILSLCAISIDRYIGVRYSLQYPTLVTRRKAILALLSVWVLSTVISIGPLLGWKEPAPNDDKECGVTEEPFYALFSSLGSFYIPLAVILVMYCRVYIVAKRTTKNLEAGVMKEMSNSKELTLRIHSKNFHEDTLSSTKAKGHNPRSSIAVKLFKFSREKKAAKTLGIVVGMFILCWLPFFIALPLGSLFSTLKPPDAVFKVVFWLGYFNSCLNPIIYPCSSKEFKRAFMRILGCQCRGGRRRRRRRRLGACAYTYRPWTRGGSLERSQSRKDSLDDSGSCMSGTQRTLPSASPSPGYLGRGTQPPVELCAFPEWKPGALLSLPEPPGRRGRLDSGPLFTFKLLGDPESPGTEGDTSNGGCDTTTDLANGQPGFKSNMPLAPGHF
Test: Antagonist activity at Alpha-1B receptor in Wistar rat spleen assessed as inhibition of (-)-phenylephrine-induced contraction after 30 mins
Assay type: functional, tissue-based
ENDPOINT_NAME: pKb

MOLECULE	VALUE_REPORTED
COc1ccccc1N1CCN(C[C@H]2CCC(c3ccccc3)(c3ccccc3)[C@H]2O)CC1 (relative stereo)	7.25
COc1ccccc1N1CCN(CC2CCC(c3ccccc3)(c3ccccc3)C2=O)CC1 (configuration not stated)	7.54
O[C@@H]1[C@H](CNCCOc2ccccc2)CCC1(c1ccccc1)c1ccccc1 (relative stereo)	6.26
COc1ccccc1OCCNCC1COC(c2ccccc2)(c2ccccc2)O1 (configuration not stated)	7.36
c1ccc(OCCNCC2COC(c3ccccc3)(c3ccccc3)O2)cc1 (configuration not stated)	5.86
COc1ccccc1N1CCN(CCN2C(=O)CC3(CCCC3)CC2=O)CC1	7.48
COc1ccccc1N1CCN(CC2COC(c3ccccc3)(c3ccccc3)O2)CC1 (configuration not stated)	6.69
COc1ccccc1OCCNCC1CCC(c2ccccc2)(c2ccccc2)O1 (configuration not stated)	6.92
O=C1C(CNCCOc2ccccc2)CCC1(c1ccccc1)c1ccccc1 (configuration not stated)	6.95
COc1ccccc1N1CCN(CC2CCC(c3ccccc3)(c3ccccc3)O2)CC1 (configuration not stated)	6.85
COc1ccccc1OCCNCC1CCC(c2ccccc2)(c2ccccc2)C1=O (configuration not stated)	6.92
COc1ccccc1N1CCN(C[C@H]2CCC(c3ccccc3)(c3ccccc3)[C@@H]2O)CC1	7.14

----------
Biological target: Alpha-1D adrenergic receptor (Rattus norvegicus) (UniProt P23944)
Sequence (P23944 whole entry): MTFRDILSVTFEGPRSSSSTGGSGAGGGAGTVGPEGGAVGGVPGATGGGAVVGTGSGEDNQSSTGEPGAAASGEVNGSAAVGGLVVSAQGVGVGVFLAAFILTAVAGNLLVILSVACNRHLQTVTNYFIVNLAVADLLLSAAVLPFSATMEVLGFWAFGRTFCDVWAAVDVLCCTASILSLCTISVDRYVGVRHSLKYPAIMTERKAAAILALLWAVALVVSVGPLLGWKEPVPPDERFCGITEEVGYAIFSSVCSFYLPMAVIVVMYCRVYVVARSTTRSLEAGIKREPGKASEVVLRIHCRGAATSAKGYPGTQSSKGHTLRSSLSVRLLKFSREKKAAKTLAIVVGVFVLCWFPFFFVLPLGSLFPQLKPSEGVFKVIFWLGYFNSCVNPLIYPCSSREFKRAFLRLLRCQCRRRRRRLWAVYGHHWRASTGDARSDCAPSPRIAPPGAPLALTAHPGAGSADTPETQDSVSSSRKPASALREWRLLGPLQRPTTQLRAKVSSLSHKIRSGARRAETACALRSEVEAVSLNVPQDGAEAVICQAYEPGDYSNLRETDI
Experiment: Antagonist activity at Alpha-1D adrenoceptor in Wistar rat endothelium denuded thoracic aorta assessed as inhibition of (-)-noradrenalilne-induced contraction after 30 mins
Assay type: functional, tissue-based
ENDPOINT_NAME: pKb

MOLECULE	ENDPOINT_NAME	VALUE_REPORTED
COc1ccccc1OCCNCC1CCC(c2ccccc2)(c2ccccc2)C1=O (stereo unspecified)	pKb	6.54
COc1ccccc1N1CCN(C[C@H]2CCC(c3ccccc3)(c3ccccc3)[C@H]2O)CC1 (relative stereo)	pKb	7.21
O[C@@H]1[C@@H](CNCCOc2ccccc2)CCC1(c1ccccc1)c1ccccc1 (relative stereo)	pKb	6.86
COc1ccccc1N1CCN(CC2COC(c3ccccc3)(c3ccccc3)O2)CC1 (stereo unspecified)	pKb	8.14
O=C1C(CNCCOc2ccccc2)CCC1(c1ccccc1)c1ccccc1 (stereo unspecified)	pKb	6.3
c1ccc(OCCNCC2CCC(c3ccccc3)(c3ccccc3)O2)cc1 (stereo unspecified)	pKb	7.21
COc1ccccc1OCCNCC1CCC(c2ccccc2)(c2ccccc2)O1 (stereo unspecified)	pKb	8.09
O[C@@H]1[C@H](CNCCOc2ccccc2)CCC1(c1ccccc1)c1ccccc1 (relative stereo)	pKb	6.88
COc1ccccc1OCCNC[C@H]1CCC(c2ccccc2)(c2ccccc2)[C@@H]1O (relative stereo)	pKb	8.42
COc1ccccc1N1CCN(CC2CCC(c3ccccc3)(c3ccccc3)O2)CC1 (stereo unspecified)	pKb	7.5
COc1ccccc1N1CCN(C[C@H]2CCC(c3ccccc3)(c3ccccc3)[C@@H]2O)CC1	pKb	6.82
